System: Staphylococcus aureus
Assay: Bactericidal activity against methicillin-resistant Staphylococcus aureus PU 32 harboring i-ermA gene incubated for 16 to 20 hrs by CLSI based broth microdilution method
Format: functional
Details: time 16-20 hrs
Reported metric: MBC (µg/mL)
Answers are plain numbers, in µg/mL.

State the recorded MBC for this entry: CC[C@H]1OC(=O)[C@H](C)[C@@H](OC(=O)CCNCCCCNc2cc3c(cc2F)c(=O)c(C(=O)O)cn3C2CC2)[C@H](C)[C@@H](O[C@@H]2O[C@H](C)C[C@H](N(C)C)[C@H]2O)[C@](C)(OC)C[C@@H](C)/C(=N\OCC#Cc2cncc(C(=O)NC3CC3)c2)[C@H](C)[C@H]2OC(=O)O[C@@]21C
64
